Test system: MCF7
TEST: Induction of apoptosis in human MCF7 cells assessed as early apoptotic cells at IC50 after 48 hrs by annexin V-FITC/propidium iodide staining based flow cytometric analysis (reference value: 0.1%)
Format: functional
Could you please mark 1 for values of Activity below 80% and 0 for values at or above it?

Worked examples follow.
[
  {
    "MOLECULE": "C=C1CC[C@@H]2[C@](C)(CO)[C@H](O)CC[C@@]2(C)[C@@H]1CC1CN(Cc2ccccc2)[C@@]2(C(=O)Nc3ccc(Br)cc32)[C@]12C(=O)OC[C@H]2O (stereo not given in full)",
    "TEST SYSTEM": "MCF7",
    "CLASS LABEL": 0
  },
  {
    "MOLECULE": "C=C1CC[C@@H]2[C@](C)(CO)[C@H](O)CC[C@@]2(C)[C@@H]1CC1CN(Cc2ccccc2)[C@@]2(C(=O)c3cccc4cccc2c34)[C@]12C(=O)OC[C@H]2O (stereo not given in full)",
    "TEST SYSTEM": "MCF7",
    "CLASS LABEL": 0
  },
  {
    "MOLECULE": "C=C1CC[C@@H]2[C@](C)(CO)[C@H](O)CC[C@@]2(C)[C@@H]1CC1CN(Cc2ccccc2)[C@@]2(C(=O)Nc3c(F)cccc32)[C@]12C(=O)OC[C@H]2O (stereo not given in full)",
    "TEST SYSTEM": "MCF7",
    "CLASS LABEL": 1
  },
  {
    "MOLECULE": "C=C1CC[C@@H]2[C@](C)(CO)[C@H](O)CC[C@@]2(C)[C@@H]1CC1CN(Cc2ccccc2)[C@@]2(C(=O)Nc3ccc(C)cc32)[C@]12C(=O)OC[C@H]2O (stereo not given in full)",
    "TEST SYSTEM": "MCF7",
    "CLASS LABEL": 1
  }
]

With those in mind, consider the next molecule.
Record C=C1CC[C@@H]2[C@](C)(CO)[C@H](O)CC[C@@]2(C)[C@@H]1CC1CN(Cc2ccccc2)[C@@]2(C(=O)Nc3ccc(Cl)cc32)[C@]12C(=O)OC[C@H]2O (stereo not given in full) : is its Activity strictly below 80%?
0
